assayTarget: COX-1 (Ovis aries, UniProt P05979)
Sequence (P05979 25-600): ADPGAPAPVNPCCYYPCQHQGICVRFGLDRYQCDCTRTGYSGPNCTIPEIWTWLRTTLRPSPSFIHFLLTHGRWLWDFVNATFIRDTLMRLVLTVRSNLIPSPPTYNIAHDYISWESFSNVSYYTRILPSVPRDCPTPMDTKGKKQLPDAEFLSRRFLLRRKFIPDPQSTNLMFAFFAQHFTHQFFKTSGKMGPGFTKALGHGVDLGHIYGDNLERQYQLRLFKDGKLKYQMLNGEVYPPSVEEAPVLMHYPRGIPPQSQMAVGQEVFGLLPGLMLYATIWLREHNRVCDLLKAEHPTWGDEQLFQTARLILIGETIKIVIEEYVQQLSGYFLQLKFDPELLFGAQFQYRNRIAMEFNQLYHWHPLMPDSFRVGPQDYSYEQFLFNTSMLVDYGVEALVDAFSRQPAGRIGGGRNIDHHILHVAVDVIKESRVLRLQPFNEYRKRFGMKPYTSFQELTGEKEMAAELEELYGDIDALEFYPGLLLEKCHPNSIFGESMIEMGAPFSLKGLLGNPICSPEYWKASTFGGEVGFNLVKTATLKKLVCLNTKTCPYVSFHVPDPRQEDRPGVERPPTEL
measure: IC50 (µM)

[
  {
    "compound": "CC1(C)CC(=O)C2=C(C1)NC(c1ccc(Br)cc1)=CC2c1ccc(S(C)(=O)=O)cc1 (stereo not drawn) [Compound 9m]",
    "assayTarget": "COX-1 (Ovis aries, UniProt P05979)",
    "measure": "IC50",
    "experimentalResult": 17.9
  }
]

[P] COc1ccc(C2=CC(c3ccc(S(C)(=O)=O)cc3)C3=C(CC(C)(C)CC3=O)N2)cc1 (stereo not drawn) [Compound 9j]
[Q] Cc1ccc(C2=CC(c3ccc(S(C)(=O)=O)cc3)C3=C(CC(C)(C)CC3=O)N2)cc1 (stereo not drawn) [Compound 9i]
Pick one, P or Q : lowest reported IC50. Indicate which entry you chose by stating its label.
Q
(Q: 2.9 µM, P: 18.7 µM)

The reported measurements were obtained from paper PMC3977054.
